Data provenance: patent US20240000075A1

Test system: Phakopsora pachyrhizi
TEST: Asian soybean rust, whole-plant fungicidal activity (PHAKPA)
Type: in vivo
CONDITION_DESCRIPTION: 72 h, 3DC (3 day curative), read-out: % Disease Control Rating PHAKPA
MEASUREMENT_KIND: pest or weed control at 200 ppm

In the examples that follow, each entry is paired with its recorded pest or weed control at 200 ppm.
CCN(C)/C(S)=N/c1cc(C)c(C(=O)CC2CCCCC2)cc1C [Compound 61]    > 85%
CCN(CC)/C(S)=N/c1cc(C)c(C(=O)CC2CCCCC2)cc1C [Compound 55]    > 85%
CCN(C)/C=N/c1cc(C)c(C(=O)C2CCC2)cc1C [Compound 25]    > 85%
CCN(C)/C=N/c1ccc(C(=O)CCC(F)(F)F)c(C)c1C [Compound 13]    > 85%

Request: Report value only: pest or weed control at 200 ppm, Phakopsora pachyrhizi, CCN(C)/C=N/c1cc(C)c(C(=O)CC2CCCCC2)cc1C [Compound 3]
Response: > 85%

Request: Report value only: pest or weed control at 200 ppm, Phakopsora pachyrhizi, CCN(C)/C=N/c1cc(C)c(C(=O)Cc2ccccc2)cc1C [Compound 2]
Response: > 85%

Request: Report value only: pest or weed control at 200 ppm, Phakopsora pachyrhizi, CCN(C)/C=N/c1cc(OC)c(C(=O)Cc2c(F)cc(F)cc2F)cc1C [Compound 37]
Response: > 85%

Request: Report value only: pest or weed control at 200 ppm, Phakopsora pachyrhizi, CCN(C)/C=N/c1cc(F)c(C(=O)CC2CCCC2)cc1C [Compound 30]
Response: > 85%

Request: Report value only: pest or weed control at 200 ppm, Phakopsora pachyrhizi, CCN(C)/C=N/c1cc(C)c(C(=O)Cc2ccc(SC(F)(F)F)cc2)cc1C [Compound 65]
Response: > 85%

Request: Report value only: pest or weed control at 200 ppm, Phakopsora pachyrhizi, CCN(C)/C=N/c1ccc(C(=O)C2CCC2)cc1C [Compound 95]
Response: 20 to 50%

* * *

Tested on: Rhynchosporium commune
TEST: Leaf blotch of barley, whole-plant fungicidal activity (RHYNSE)
Format: in vivo
CONDITION_DESCRIPTION: 24 h, 1DP (1 day protectant), read-out: % Disease Control Rating RHYNSE
MEASUREMENT_KIND: pest or weed control at 200 ppm

Request: Please look at this molecule and report its pest or weed control at 200 ppm: CCN(C)/C=N/c1cc(C)c(C(=O)Cc2cccc(OC(F)(F)F)c2)cc1C
Response: > 85%

Request: Please look at this molecule and report its pest or weed control at 200 ppm: CCN(C)/C=N/c1cc(C)c(C(=O)CCC(C)C)cc1C
Response: > 85%

Request: Please look at this molecule and report its pest or weed control at 200 ppm: Cc1cc(C(=O)CC2CCCCC2)c(C)cc1/N=C/N(C)CC(F)(F)F
Response: < 20%

Request: Please look at this molecule and report its pest or weed control at 200 ppm: CCN(C)/C=N/c1ccc(C(=O)Cc2ccc(C)cc2F)c(C)c1C
Response: < 20%

* * *

Test system: Phakopsora pachyrhizi
TEST: Asian soybean rust, whole-plant fungicidal activity (PHAKPA)
Assay type: in vivo
CONDITION_DESCRIPTION: 72 h, 3DC (3 day curative), read-out: % Disease Control Rating PHAKPA
Recorded pest or weed control at 200 ppm for the following compounds

Cc1cc(C(=O)CC2CCCCC2)c(C)cc1/N=C(\S)N1CCCCC1    > 85%

Request: Please look at this compound and report its pest or weed control at 200 ppm: CCN(C)/C=N/c1cc(OC)c(C(=O)CC2CCCC2)cc1C
Response: > 85%

Request: Please look at this compound and report its pest or weed control at 200 ppm: CCN(C)/C(C)=N/c1cc(C)c(C(=O)Cc2c(F)cc(F)cc2F)cc1C
Response: > 85%

Request: Please look at this compound and report its pest or weed control at 200 ppm: Cc1cc(C(=O)CC2CCCCC2)c(C)cc1/N=C/N(C)c1ccccc1
Response: < 20%

Request: Please look at this compound and report its pest or weed control at 200 ppm: Cc1cc(C(=O)CC2CCCCC2)c(C)cc1/N=C/N(C)C1CC1
Response: < 20%

Request: Please look at this compound and report its pest or weed control at 200 ppm: Cc1cc(C(=O)CC2CCCCC2)c(C)cc1/N=C(\S)N1CCCC1
Response: 50 to 85%

Request: Please look at this compound and report its pest or weed control at 200 ppm: CCN(C)/C(C)=N/c1cc(C)c(C(=O)CC2CCCC2)cc1C
Response: > 85%

Request: Please look at this compound and report its pest or weed control at 200 ppm: CCN(C)/C=N/c1cc(C)c(C(=O)CCC(C)C)cc1C
Response: > 85%

Request: Please look at this compound and report its pest or weed control at 200 ppm: CCN(C)/C=N/c1ccc(C(=O)Cc2ccccc2)c(C)c1C
Response: > 85%
